subjectOfTest: hTAS2R16 (ssr3-hTAS2R16) (Homo sapiens, UniProt Q9NYV7, I243L)
protocolText: Fluo-4 calcium assay, HEK293T + Galpha16gust44
measure: EC50 (µM)
Answer format: numeric, µM implied, no suffix.

Query: Note down EC50 recorded for OCc1ccccc1O[C@@H]1O[C@H](CO)[C@@H](O)[C@H](O)[C@H]1O [salicin]
Response: 500

* * *

subjectOfTest: hTAS2R16 (ssr3-hTAS2R16) (Homo sapiens, UniProt Q9NYV7, F240Y)
protocolText: Fluo-4 calcium assay, HEK293T + Galpha16gust44
measure: EC50 (µM)
Write the number in µM without appending the unit.

Query: Indicate its recorded EC50; the molecule in question is OCc1ccccc1O[C@@H]1O[C@H](CO)[C@@H](O)[C@H](O)[C@H]1O [salicin]
Response: 2440

* * *

subjectOfTest: hTAS2R16 (ssr3-hTAS2R16) (Homo sapiens, UniProt Q9NYV7, Q177A)
protocolText: Fluo-4 calcium assay, HEK293T + Galpha16gust44
measure: EC50 (µM)
The reply should be a number in µM, with the unit left off.

Query: Report EC50, nothing else, for this compound: OCc1ccccc1O[C@@H]1O[C@H](CO)[C@@H](O)[C@H](O)[C@H]1O
Response: 550

* * *

subjectOfTest: hTAS2R16 (ssr3-hTAS2R16) (Homo sapiens, UniProt Q9NYV7, F93A)
protocolText: Fluo-4 calcium assay, HEK293T + Galpha16gust44
measure: EC50 (mM)
Number only, in mM; omit the unit.

Query: Given OCc1ccccc1O[C@@H]1O[C@H](CO)[C@@H](O)[C@H](O)[C@H]1O , respond with its EC50.
Response: 11.5

* * *

subjectOfTest: hTAS2R16 (ssr3-hTAS2R16) (Homo sapiens, UniProt Q9NYV7, E86D)
Sequence (Q9NYV7 1-291 E86D): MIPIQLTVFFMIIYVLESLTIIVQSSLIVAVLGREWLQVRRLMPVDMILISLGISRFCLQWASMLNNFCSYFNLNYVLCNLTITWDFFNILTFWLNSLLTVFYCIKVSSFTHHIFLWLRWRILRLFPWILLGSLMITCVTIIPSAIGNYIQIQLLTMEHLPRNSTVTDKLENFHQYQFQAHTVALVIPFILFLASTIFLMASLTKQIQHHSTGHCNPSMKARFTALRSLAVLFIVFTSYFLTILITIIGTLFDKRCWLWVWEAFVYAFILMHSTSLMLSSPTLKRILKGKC
protocolText: Fluo-4 calcium assay, HEK293T + Galpha16gust44
measure: pEC50
Keep in mind that pEC50 stands for -log10 of concentration in molar terms.

1. OC[C@H]1O[C@@H](Oc2ccc(O)cc2)[C@H](O)[C@@H](O)[C@@H]1O    1.97

# context switch: different molecule, same pEC50
Query: Retrieve pEC50 measured for OCc1ccccc1O[C@@H]1O[C@H](CO)[C@@H](O)[C@H](O)[C@H]1O and print it.
Response: 2.67

* * *

subjectOfTest: hTAS2R16 (ssr3-hTAS2R16) (Homo sapiens, UniProt Q9NYV7, I243A)
protocolText: Fluo-4 calcium assay, HEK293T + Galpha16gust44
measure: EC50

Query: Name the recorded EC50 of the item OCc1ccccc1O[C@@H]1O[C@H](CO)[C@@H](O)[C@H](O)[C@H]1O [salicin] in your answer.
Response: > 30 mM
